- Tested target: hERG current (Homo sapiens (Human), UniProt Q12809)
- Sequence (Q12809 whole entry): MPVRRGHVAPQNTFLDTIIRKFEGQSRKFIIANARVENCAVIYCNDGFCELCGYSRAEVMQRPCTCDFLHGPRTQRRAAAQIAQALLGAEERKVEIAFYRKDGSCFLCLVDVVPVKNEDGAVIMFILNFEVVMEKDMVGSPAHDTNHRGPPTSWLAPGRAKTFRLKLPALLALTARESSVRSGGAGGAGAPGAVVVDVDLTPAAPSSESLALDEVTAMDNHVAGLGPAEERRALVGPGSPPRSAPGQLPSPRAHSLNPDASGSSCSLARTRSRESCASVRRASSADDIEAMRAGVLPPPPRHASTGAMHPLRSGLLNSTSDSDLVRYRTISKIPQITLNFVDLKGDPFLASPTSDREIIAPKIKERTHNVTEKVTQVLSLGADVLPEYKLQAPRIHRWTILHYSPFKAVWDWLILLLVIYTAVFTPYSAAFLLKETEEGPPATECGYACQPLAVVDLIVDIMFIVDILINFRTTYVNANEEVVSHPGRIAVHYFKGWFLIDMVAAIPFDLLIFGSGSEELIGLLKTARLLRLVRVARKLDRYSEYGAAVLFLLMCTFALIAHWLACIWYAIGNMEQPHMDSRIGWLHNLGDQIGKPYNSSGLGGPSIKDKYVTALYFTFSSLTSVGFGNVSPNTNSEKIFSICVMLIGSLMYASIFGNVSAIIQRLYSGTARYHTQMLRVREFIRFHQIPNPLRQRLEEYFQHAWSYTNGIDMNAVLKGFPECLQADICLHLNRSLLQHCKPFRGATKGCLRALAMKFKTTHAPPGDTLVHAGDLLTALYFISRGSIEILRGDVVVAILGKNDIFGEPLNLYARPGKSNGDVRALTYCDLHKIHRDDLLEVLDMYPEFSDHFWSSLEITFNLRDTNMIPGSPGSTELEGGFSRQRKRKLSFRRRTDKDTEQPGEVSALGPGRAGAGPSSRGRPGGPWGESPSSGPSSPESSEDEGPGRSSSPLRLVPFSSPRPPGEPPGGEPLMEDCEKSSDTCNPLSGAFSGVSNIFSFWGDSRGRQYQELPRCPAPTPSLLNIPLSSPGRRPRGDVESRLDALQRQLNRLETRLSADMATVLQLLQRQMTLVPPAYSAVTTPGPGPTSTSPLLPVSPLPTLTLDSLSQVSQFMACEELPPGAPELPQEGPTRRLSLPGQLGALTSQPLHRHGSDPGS
- Measurement protocol: cell-based
Structures can show the parent of a compound that is named as a salt.
Measurement kind: IC50 (µM)
Write the value in µM as a bare number.

Record excerpt, results attached:
CC[C@]1(c2cccc(NS(=O)(=O)C3CC3)c2)[C@@H]2CN(CCCC3CCC(F)(F)CC3)C[C@@H]21 [Example 4-(b), hydrochloride] ... 0.094
CC[C@]1(c2cccc(NS(=O)(=O)C3CC3)c2)[C@@H]2CN(CCCN3CCCC(F)(F)C3)C[C@@H]21 [Example 16-(b), hydrochloride] ... 0.64
CC[C@]1(c2cccc(NS(=O)(=O)C3CC3)c2)[C@@H]2CN(CCCN3CCC(F)(F)CC3)C[C@@H]21 [Example 7-(b), hydrochloride] ... 1.2

Let us move to another entry and its IC50.
Would you mind telling me what IC50 value was observed for `CC[C@]1(c2cccc(NS(=O)(=O)C3CC3)c2)[C@@H]2CN(CC3(O)Cc4ccccc4C3)C[C@@H]21` ?
0.11

* * *

- Tested target: hERG (Homo sapiens (Human))
- Measurement protocol: Safety margin against hERG inhibitory activity
- Settings: hERG IC50×1000/{concentration in plasma at ED50×(1−protein binding rate/100)}
Structures can show the parent of a compound that is named as a salt.
The reader will find reported Safety margin values listed item by item below.
Write the value as a bare number.

Record excerpt, results attached:
CC[C@]1(c2cccc(NS(=O)(=O)C3CC3)c2)[C@@H]2CN(CC3(O)Cc4ccccc4C3)C[C@@H]21 ... 82
CC[C@]1(c2cccc(NS(=O)(=O)C3CC3)c2)[C@@H]2CN(CCCC3CCC(F)(F)CC3)C[C@@H]21 [Example 4-(b), hydrochloride] ... 157
CC[C@]1(c2cc(NS(=O)(=O)C3CC3)ccc2F)[C@@H]2CN(CC3(O)Cc4ccccc4C3)C[C@@H]21 [Example 2-(b), hydrochloride] ... 1250
CC[C@]1(c2cccc(NS(=O)(=O)C3CC3)c2)[C@@H]2CN(CC3(OC)Cc4ccccc4C3)C[C@@H]21 [Example 3-(b), hydrochloride] ... 1980
CC[C@]1(c2cccc(NS(=O)(=O)C3CC3)c2)[C@@H]2CN(CCCN3CCCC(F)(F)C3)C[C@@H]21 [Example 16-(b), hydrochloride] ... 58

Would you mind telling me what Safety margin value was observed for CC[C@]1(c2cccc(NS(=O)(=O)C3CC3)c2)[C@@H]2CN(CCCN3CCC(F)(F)C3)C[C@@H]21 [Example 8-(b), hydrochloride] ?
99

Repeat for the following molecule: CC[C@]1(c2cc(NS(=O)(=O)C3CC3)ccc2F)[C@@H]2CN(CCCC3CCC(F)(F)CC3)C[C@@H]21 [Example 5-(b), hydrochloride]
153

* * *

- Measurement protocol: Plasma concentration of test substance at ED50 value (mice, LC/MS/MS)
- Type: in vivo
- Settings: at the ED50 value, at time of morphine administration, oral, linear regression from two doses
Where a name gives a salt, the structure may show the parent alone.
Criterion: Plasma concentration of test substance strictly under 100 nM. Met: 1. Not met: 0.

Completed entries (count: 5):
CC[C@]1(c2cc(F)cc(NS(=O)(=O)C3CC3)c2)[C@@H]2CN(CC3(O)Cc4ccccc4C3)C[C@@H]21 [Example 10-(b), hydrochloride] ... 0
CC[C@]1(c2cccc(NS(=O)(=O)C3CC3)c2)[C@@H]2CN(CC3(O)Cc4ccccc4C3)C[C@@H]21 ... 1
CC[C@]1(c2cccc(NS(=O)(=O)C3CC3)c2)[C@@H]2CN(CC3(OC)Cc4ccccc4C3)C[C@@H]21 [Example 3-(b), hydrochloride] ... 1
CC[C@]1(c2cc(F)cc(NS(=O)(=O)C3CC3)c2)[C@@H]2CN(CC3(OC)Cc4ccccc4C3)C[C@@H]21 [Example 12-(b), hydrochloride] ... 0
CC[C@]1(c2cc(NS(=O)(=O)C3CC3)ccc2F)[C@@H]2CN(CCCC3CCC(F)(F)CC3)C[C@@H]21 [Example 5-(b), hydrochloride] ... 0

Is the reported Plasma concentration of test substance for CC[C@]1(c2cccc(NS(=O)(=O)C3CC3)c2)[C@@H]2CN(CCCC3CCC(F)(F)CC3)C[C@@H]21 [Example 4-(b), hydrochloride] strictly below 100 nM?
1

* * *

The reader will find reported pIC50 values listed item by item below.
- Tested target: hERG current (Homo sapiens (Human), UniProt Q12809)
- Measurement protocol: cell-based
- Text: A: the suppression rate (%) of the test substance in each cell B: the average suppression rate (%) of the vehicle control group
Counter-ions that a name gives are not always drawn.
In plain terms, pIC50 is the concentration in mol/L turned into minus its base-10 logarithm.

CC[C@]1(c2cc(NS(=O)(=O)C3CC3)ccc2F)[C@@H]2CN(CC3(O)Cc4ccccc4C3)C[C@@H]21 [Example 2-(b), hydrochloride] ... 6.80
C[C@]1(c2cccc(NS(=O)(=O)C3CC3)c2)[C@@H]2CN(CC3(O)Cc4ccccc4C3)C[C@@H]21 [Example 17-(b), hydrochloride] ... 6.89

Let us move to another entry and its pIC50.
Would you mind telling me what pIC50 value was observed for COC1(CN2C[C@@H]3[C@H](C2)[C@@]3(C)c2cccc(NS(=O)(=O)C3CC3)c2)Cc2ccccc2C1 [Example 18-(b), hydrochloride] ?
6.40

* * *

- Tested target: human μ-opioid receptor (Homo sapiens (Human))
- Measurement protocol: Antagonist activity test using [35S]-GTPγS bond as index using human μ-opioid receptor-expressing cell membrane
- Type: biochemical
Where a name gives a salt, the structure may show the parent alone.
Kindly note that classification relies on IC50 with these boundaries: low-valued = under 2 nM, mid-valued = from 2 nM up to 3 nM, high-valued = 3 nM and over

Assign a category based on measured IC50 for CC[C@]1(c2cccc(NS(=O)(=O)C3CC3)c2)[C@@H]2CN(CCCN3CCC(F)(F)C3)C[C@@H]21 [Example 8-(b), hydrochloride] and give only the class name.
mid-valued

Repeat for the following compound: CCOC1(CCCN2C[C@@H]3[C@H](C2)[C@@]3(CC)c2cccc(NS(=O)(=O)C3CC3)c2)CCC(F)(F)CC1 [Example 14-(b), hydrochloride]
low-valued

Repeat for the following compound: CC[C@]1(c2cc(NS(=O)(=O)C3CC3)ccc2F)[C@@H]2CN(CCCN3CCC(F)(F)CC3)C[C@@H]21 [Example 15-(b), hydrochloride]
low-valued

Repeat for the following compound: CC[C@]1(c2cc(NS(=O)(=O)C3CC3)ccc2F)[C@@H]2CN(CC3(OC)Cc4ccccc4C3)C[C@@H]21 [Example 11-(b), hydrochloride]
mid-valued

Repeat for the following compound: CC[C@]1(c2cc(F)cc(NS(=O)(=O)C3CC3)c2)[C@@H]2CN(CC3(O)Cc4ccccc4C3)C[C@@H]21 [Example 10-(b), hydrochloride]
high-valued

Repeat for the following compound: COC1(CN2C[C@@H]3[C@H](C2)[C@@]3(C)c2cccc(NS(=O)(=O)C3CC3)c2)Cc2ccccc2C1 [Example 18-(b), hydrochloride]
high-valued

Repeat for the following compound: CC[C@]1(c2cccc(NS(=O)(=O)C3CC3)c2)[C@@H]2CN(CCCN3CCC(F)(F)CC3)C[C@@H]21 [Example 7-(b), hydrochloride]
low-valued

Repeat for the following compound: CC[C@]1(c2cccc(NS(=O)(=O)C3CC3)c2)[C@@H]2CN(CCCC3CCC(F)(F)CC3)C[C@@H]21 [Example 4-(b), hydrochloride]
low-valued

Repeat for the following compound: CC[C@]1(c2cc(NS(=O)(=O)C3CC3)ccc2F)[C@@H]2CN(CCCN3CCC(F)(F)C3)C[C@@H]21 [Example 9-(b), hydrochloride]
mid-valued

Repeat for the following compound: CC[C@]1(c2cccc(NS(=O)(=O)C3CC3)c2)[C@@H]2CN(CCCN3CCCC(F)(F)C3)C[C@@H]21 [Example 16-(b), hydrochloride]
high-valued

Repeat for the following compound: CC[C@]1(c2cccc(NS(=O)(=O)C3CC3)c2)[C@@H]2CN(CC3(O)Cc4cc(F)c(F)cc4C3)C[C@@H]21 [Example 20-(a)]
high-valued

* * *

- Measurement protocol: Plasma concentration of test substance at ED50 value (mice, LC/MS/MS)
- Assay type: in vivo
- Settings: at the ED50 value, at time of morphine administration, oral, linear regression from two doses
Structures can show the parent of a compound that is named as a salt.
Criterion: Plasma concentration of test substance strictly under 70 nM. Met: class 1. Not met: class 0.

CC[C@]1(c2cccc(NS(C)(=O)=O)c2)[C@@H]2CN(CC3(O)Cc4ccccc4C3)C[C@@H]21.CS(=O)(=O)O [Comparative compound 1, reference compound] ... class 0
CC[C@]1(c2cccc(NS(=O)(=O)C3CC3)c2)[C@@H]2CN(CCCN3CCC(F)(F)CC3)C[C@@H]21 [Example 7-(b), hydrochloride] ... class 1
CC[C@]1(c2cc(NS(=O)(=O)C3CC3)ccc2F)[C@@H]2CN(CC3(O)Cc4ccccc4C3)C[C@@H]21 [Example 2-(b), hydrochloride] ... class 1

Is the reported Plasma concentration of test substance for CC[C@]1(c2cccc(NS(=O)(=O)C3CC3)c2)[C@@H]2CN(CCCN3CCCC(F)(F)C3)C[C@@H]21 [Example 16-(b), hydrochloride] strictly below 70 nM?
class 1

Repeat for the following compound: CC[C@]1(c2cccc(NS(=O)(=O)C3CC3)c2)[C@@H]2CN(CCCN3CCC(F)(F)C3)C[C@@H]21 [Example 8-(b), hydrochloride]
class 1
